The molecules listed here are annotated with their fraction unbound at 2 h, 5 μM.
Assay: Plasma protein binding by equilibrium dialysis, human plasma
Assay type: in vitro ADME
Conditions: human plasma, 5 μM, fraction unbound; read-out: Plasma Protein Binding Fu ± SD
Protocol: In assays to estimate binding of test compounds to plasma proteins, test compound solutions (5 μM) are prepared in buffer and species-specific plasma (final DMSO concentration 0.5%). The plasma-containing solution is added to one side of the membrane of an equilibrium dialysis system, and the plasma-free is added to the other side. Dialysis was allowed to reach equilibrium by incubation for two hours at 37° C. The concentration of compound on both sides of the membrane was measured using LC-MS/MS.
Test readout: fraction unbound at 2 h, 5 μM

# Molecule, Numeric result
records = [
    ("CCC[C@@]1(CCc2ccccc2)CC(O)=C([C@H](CC)c2cccc(NS(=O)(=O)c3ccc(C(F)(F)F)cn3)c2)C(=O)O1 [Tipranavir, reference compound]", 0.00866),
    ("CC(C)CN(C[C@@H](O)[C@H](Cc1ccccc1)NC(=O)O[C@H]1CO[C@H]2OCC[C@H]21)S(=O)(=O)c1ccc(N)cc1 [Darunavir, reference compound]", 0.144),
    ("COCCOCCOCCOC(=O)NC(C(=O)NC(Cc1ccccc1)C(O)CN(Cc1ccc(-c2ccccn2)cc1)NC(=O)C(NC(=O)OC)C(C)(C)C)C(C)(C)C (stereo not shown) [mono-mPEG3-Atazanavir]", 0.217),
    ("COC(=O)N[C@H](C(=O)N[C@@H](Cc1ccccc1)[C@@H](O)CN(Cc1ccc(-c2ccccn2)cc1)NC(=O)[C@@H](NC(=O)OC)C(C)(C)C)C(C)(C)C [Atazanavir, reference compound]", 0.106),
]
